Parameter hu:mu ratio: see the listing below.
# target_or_system: T1, His-tagged human B7-H3 (human, UniProt Q5ZPR3-2 29-245, limits assumed)
# T1 construct: Bought His-tagged protein coated on the ELISA plate; also called hu B7-H3; CD276
# T1 sequence (looked up): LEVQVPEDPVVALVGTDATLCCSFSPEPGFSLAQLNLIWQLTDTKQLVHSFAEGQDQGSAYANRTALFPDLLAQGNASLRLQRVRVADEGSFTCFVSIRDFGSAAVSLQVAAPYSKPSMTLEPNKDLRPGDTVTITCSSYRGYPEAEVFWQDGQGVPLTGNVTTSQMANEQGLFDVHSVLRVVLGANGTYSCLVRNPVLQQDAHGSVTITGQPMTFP
# method_summary: ELISA OD450 on hu B7-H3 over OD450 on mu B7-H3
In your answer, state the number alone without any accompanying words.

Determine its reported hu:mu ratio: 40511p1.2.A4 (scFv, V domains shown, Tested as scFv-Fc (Expi293 supernatant)) VH: DVQLVESGGGVVRPGESLRLSCAASGFTFSSYAESWVRQAPGEGLEWVSIISGSGGNTFYADSVKGRFTISRDNSKNTLYLQMNSLRAEDTAVYYCARFAYGFFDYWGLGTLVTVSS VL: EIVLTQSPGTLSVSPGERATLSCRASQTVGSKLAWYQQKPGQAPRLLIYDASTRATDIPDRFSGSGSGTDFTLTISSLQSEDFAVYYCQQYRNWPPLTFGGGTKVEIK 1.33

Item 40511p1.1.A1 (scFv, V domains shown, Tested as scFv-Fc (Expi293 supernatant)) VH: DVQLVESGGGVVRPGESLRLSCAASGFTFSNYAMNWVRQAPGEGLEWVSRINYKGYNITYYADSVKGRFTISRDNSKNTLYLQMNSLRAEDTAVYYCAKSGSNSNNFFDYWGLGTLVTVSS VL: EIVLTQSPGTLSVSPGERATLSCRASQSVNSKLAWYQQRPGQAPRLLIYDASSRATGIPDRFSGSGSGTDFTLTISRLEPEDFAVYYCQQYKNWPPLTFGGGTKVEIK : provide hu:mu ratio 1.87

Read off the recorded hu:mu ratio for 40579p1.C2 (scFv, V domains shown, Tested as scFv-Fc (Expi293 supernatant)) VH: EVQLLESGGDLVQPGGSLRLSCAASGFNFSSYWMSWVRQAPGKGLEWVSGISISYGGNAYYADSVKGRFTVSRDNSKNTLYLQMNSLRAEDTAVYYCGRDRSPYQYRSMDVWGQGTTVTVSS VL: EIVLTQSPATLSVSPGERATFSCRASQTIGNKLAWYQQKPGQAPRLLIFSASTRATDIPDRFSGSGSGTDFTLTISSLQSEDFAVYYCQQYNNWPPLTFGGGTKVEIK 1.16

Determine its reported hu:mu ratio: 40579p1.B8 (scFv, V domains shown, Tested as scFv-Fc (Expi293 supernatant)) VH: EVQLLESGGGLVQPGGSLRLSCAASGFTFSDYYMSWVRQAPGKGLEWVSGISMSSTIYYADSVKGRFTISRDNSKNTLYLQMNSLRAEDTAVYYCARHRSPYQYRSMDVWGQGTTVTVSS VL: EIVLTQSPGTLSLSPGERATLSCRASQSVNSKLAWYQQKPGQPPSLLIYDASRRATGIPDRFSGSGSGTEFTLTISSLQSEDFAVYYCQQYNNWPPLTFGGGTKVEIK 1.12

Using known records, supply hu:mu ratio for 40511p1.2.G10 (scFv, V domains shown, Tested as scFv-Fc (Expi293 supernatant)) VH: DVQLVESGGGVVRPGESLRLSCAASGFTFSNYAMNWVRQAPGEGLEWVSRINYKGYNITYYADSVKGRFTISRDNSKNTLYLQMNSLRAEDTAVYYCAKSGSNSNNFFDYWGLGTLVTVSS VL: EIVLTQSPGTLSLSPGERATLSCRASQTVGSKLAWYQQKPGQAPRLLIYGASTRATDIPDRFSGSGSGTEFTLTISSLQSEDFAVYYCQQYINWPPLSFGGGTKVEIK 1.37
